Just for reference, patent US4820717A is where these values come from.

# Test system: Escherichia Coli CNCM 54125
# Assay Name: Bactericidal activity (MBC), strain 1
# Format: cell-based
# Assay Context: 20 min, strain 1, 20 minutes of contact, read-out: Minimum bactericidal concentration (MBC)
MBC strictly less than 500 mg/L = T. Otherwise F.

Record excerpt, results attached:
compound="OCC(CCN1CCCC1)c1cccc2ccccc12 (stereo not shown)" target="Escherichia Coli CNCM 54125" category=F
compound="CC1CCN(CCCC(CO)c2cccc3ccccc23)CC1 (stereo not shown)" target="Escherichia Coli CNCM 54125" category=F
compound="OCC(CCCCCN1CCC(Cc2ccccc2)CC1)c1cccc2ccccc12 (stereo not shown)" target="Escherichia Coli CNCM 54125" category=T
compound="CCC(CO)(CCN1CCCCC1)c1cccc2ccccc12.Cl (stereo not shown)" target="Escherichia Coli CNCM 54125" category=F
compound="CN(C)CCC(CO)c1cccc2ccccc12 (stereo not shown)" target="Escherichia Coli CNCM 54125" category=F
compound="OCC(CCN1CCCCC1)c1cccc2ccccc12 (stereo not shown)" target="Escherichia Coli CNCM 54125" category=F

# input Lab log: compare recorded MBC with 500 mg/L; is it strictly lower for OCC(CCN(C1CCCCC1)C1CCCCC1)c1cccc2ccccc12 (stereo not shown) ?
# output T

# input // query: Cl.OCC(CCN1CCC(Cc2ccccc2)CC1)c1ccc(Cl)c(Cl)c1 (stereo not shown)
# output T

# input Next entry: CCN(CC)CCC(CO)c1cccc2ccccc12.Cl (stereo not shown)
# output F

# input Would you mind doing OCC(CCN1CCCCCC1)c1c(Cl)cccc1Cl (stereo not shown) as well?
# output F

# input Now the same for CC1CCN(CCCCCCC(CO)c2cccc3ccccc23)CC1 (stereo not shown)
# output T

# input Now the same for CC(C)N(CCC(CO)c1cccc2ccccc12)C(C)C (stereo not shown)
# output F

# input // repeat for OCC(CCN1CCC(Cc2ccccc2)CC1)c1ccc(Cl)cc1Cl (stereo not shown) and report
# output T

# input Queued: CN(C)CCCCCCC(CO)c1cccc2ccccc12 (stereo not shown)
# output T

# input Okay, and OCC(CCN1CCCCC1)c1ccc2ccccc2c1 (stereo not shown) ?
# output F

# input Same thing, different compound: CN1CCN(CCC(CO)c2cccc3ccccc23)CC1 (stereo not shown) [SR 43 291A, reference compound]
# output F
